# target.or.system: syn-pre-pro-Δ89-CB1R (Homo sapiens, UniProt P21554)
# Construct: expressed in transfected cells; host or cells: Saccharomyces cerevisiae BY4741-derived ZsGreen reporter strain (Gpa1-Gαi3 chimera; also sterol-modified strains ST01–ST15)
# Sequence (P21554 90-472 limits assumed, stated change not applied): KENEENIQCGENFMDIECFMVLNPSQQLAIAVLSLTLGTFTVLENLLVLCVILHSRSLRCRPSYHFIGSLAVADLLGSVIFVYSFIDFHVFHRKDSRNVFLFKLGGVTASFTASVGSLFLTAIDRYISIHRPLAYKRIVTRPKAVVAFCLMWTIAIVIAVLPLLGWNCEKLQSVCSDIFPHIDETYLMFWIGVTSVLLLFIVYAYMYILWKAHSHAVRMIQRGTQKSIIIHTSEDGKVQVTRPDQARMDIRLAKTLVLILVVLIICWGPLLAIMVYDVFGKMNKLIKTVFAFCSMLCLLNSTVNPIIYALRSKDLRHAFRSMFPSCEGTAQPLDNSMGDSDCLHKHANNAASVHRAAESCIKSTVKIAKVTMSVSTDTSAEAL
# assay.summary: syn-pre-pro-Δ89-CB1R dose response in sterol-modified yeast strains ST01–ST15
# Format: cell-based
# test.parameters: Strain ST11; read-out: EC50
measured.quantity: EC50
A complete answer gives the number followed by the unit.

## Input # get_value(readout='EC50', item= CCCCC/C=C\C/C=C\C/C=C\C/C=C\CCCC(=O)NCCCl [ACEA, Arachidonyl-2′-chloroethylamide] )
## Output 160 nM
